FYI, the data here is from PubChem BioAssay AID2060491.

tested on: 857933-349-R-J2-PDC complex spheroids, viability; test: Anticancer human tumor 857933-349-R-J2-PDC patient-derived colon adenocarcinoma cell line growth inhibition [GQUAD]; details: second compound 0.1 µM; first compound 0.00316 µM; active compounds read low
We begin with a simple list: items and their reported viability, T/C.

Some solved cases for reference:
CC[C@@]1(O)C(=O)OCc2c1cc1n(c2=O)Cc2cc3c(CN(C)C)c(O)ccc3nc2-1 + Cc1[nH]c2ccc(F)cc2c1-c1nc2c3cccnc3c3ncccc3c2[nH]1 : 99.7%
Cn1ncnc1[C@H]1c2n[nH]c(=O)c3cc(F)cc(c23)N[C@@H]1c1ccc(F)cc1 + CN(C)c1ccc(Nc2c3ccc(NC(=O)CCN4CCCC4)cc3nc3cc(NC(=O)CCN4CCCC4)ccc23)cc1 : 99.9%
Cc1[nH]c2ccccc2c1CCNCc1ccc(/C=C/C(=O)NO)cc1 + Cc1cnc(CNC(=O)c2c(=O)c3ccc(N4CCCN(C)CC4)nc3n3c2sc2ccccc23)cn1 : 65.6%
CC[C@@]1(O)C(=O)OCc2c1cc1n(c2=O)Cc2cc3c(CN(C)C)c(O)ccc3nc2-1 + CN(C)c1ccc(Nc2c3ccc(NC(=O)CCN4CCCC4)cc3nc3cc(NC(=O)CCN4CCCC4)ccc23)cc1 : 109%
CCc1c2c(nc3ccc(O)cc13)-c1cc3c(c(=O)n1C2)COC(=O)[C@]3(O)CC + CN(C)c1ccc(Nc2c3ccc(NC(=O)CCN4CCCC4)cc3nc3cc(NC(=O)CCN4CCCC4)ccc23)cc1 : 81.8%
CCc1c2c(nc3ccc(O)cc13)-c1cc3c(c(=O)n1C2)COC(=O)[C@]3(O)CC + Cc1cnc(CNC(=O)c2c(=O)c3ccc(N4CCCN(C)CC4)nc3n3c2sc2ccccc23)cn1 : 55.9%
CCc1c2c(nc3ccc(O)cc13)-c1cc3c(c(=O)n1C2)COC(=O)[C@]3(O)CC + Cc1[nH]c2ccc(F)cc2c1-c1nc2c3cccnc3c3ncccc3c2[nH]1 : 54.5%
CC[C@@]1(O)C(=O)OCc2c1cc1n(c2=O)Cc2cc3c(CN(C)C)c(O)ccc3nc2-1 + Cc1cnc(CNC(=O)c2c(=O)c3ccc(N4CCCN(C)CC4)nc3n3c2sc2ccccc23)cn1 : 65.6%

// moving on: another record for viability, T/C
Tell me its viability, T/C given Cc1[nH]c2ccccc2c1CCNCc1ccc(/C=C/C(=O)NO)cc1 + CN(C)c1ccc(Nc2c3ccc(NC(=O)CCN4CCCC4)cc3nc3cc(NC(=O)CCN4CCCC4)ccc23)cc1 as the entry.
102%

----------
tested on: 857933-349-R-J2-PDC complex spheroids, viability; assay: Anticancer human tumor 857933-349-R-J2-PDC cell line growth inhibition [GQUAD]; conditions: second compound 0.316 µM; first compound 0.00316 µM; active compounds read low;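 note: spheroids exposed to compounds for one week before readout; percent viability relative to vehicle DMSO wells taken as 100%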
REPORTED PROPERTY: viability, T/C (%)
Answer in %, number only, no unit symbol.

Some solved cases for reference:
CCc1c2c(nc3ccc(O)cc13)-c1cc3c(c(=O)n1C2)COC(=O)[C@]3(O)CC + Cc1cnc(CNC(=O)c2c(=O)c3ccc(N4CCCN(C)CC4)nc3n3c2sc2ccccc23)cn1 : 17.3
Cn1ncnc1[C@H]1c2n[nH]c(=O)c3cc(F)cc(c23)N[C@@H]1c1ccc(F)cc1 + Cc1[nH]c2ccc(F)cc2c1-c1nc2c3cccnc3c3ncccc3c2[nH]1 : 112
CCc1c2c(nc3ccc(O)cc13)-c1cc3c(c(=O)n1C2)COC(=O)[C@]3(O)CC + CN(C)c1ccc(Nc2c3ccc(NC(=O)CCN4CCCC4)cc3nc3cc(NC(=O)CCN4CCCC4)ccc23)cc1 : 82.3

Quote viability, T/C with test system 857933-349-R-J2-PDC complex spheroids, viability for CC[C@@]1(O)C(=O)OCc2c1cc1n(c2=O)Cc2cc3c(CN(C)C)c(O)ccc3nc2-1 + CN(C)c1ccc(Nc2c3ccc(NC(=O)CCN4CCCC4)cc3nc3cc(NC(=O)CCN4CCCC4)ccc23)cc1
101

Quote viability, T/C with test system 857933-349-R-J2-PDC complex spheroids, viability for Cc1[nH]c2ccccc2c1CCNCc1ccc(/C=C/C(=O)NO)cc1 + CN(C)c1ccc(Nc2c3ccc(NC(=O)CCN4CCCC4)cc3nc3cc(NC(=O)CCN4CCCC4)ccc23)cc1
103

Quote viability, T/C with test system 857933-349-R-J2-PDC complex spheroids, viability for Cn1ncnc1[C@H]1c2n[nH]c(=O)c3cc(F)cc(c23)N[C@@H]1c1ccc(F)cc1 + CN(C)c1ccc(Nc2c3ccc(NC(=O)CCN4CCCC4)cc3nc3cc(NC(=O)CCN4CCCC4)ccc23)cc1
100

----------
Tested on: 857933-349-R-J2-PDC complex spheroids, viability
Test: Anticancer human tumor 857933-349-R-J2-PDC cell line growth inhibition [GQUAD]; active = viability on the fitted dose curve at most 10% of control; inactive = the rest;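 note: spheroids exposed to compounds for one week before readout; percent viability relative to vehicle DMSO wells taken as 100%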
Settings: second compound 10 µM; first compound 0.0316 µM
Description: DNA G-quadruplex Stabilizer Agents in Combinations in Complex Spheroids A high-throughput screen of multi-cell type tumor spheroids was designed to identify active combinations of DNA G-quadruplex stabilizer agents and targeted small molecules. […] Compounds. […] If the clinical Cmax for an agent had not been determined, the highest concentration tested was 10 microM. […]
Reply using exactly one outcome from active, inactive

# outcome recorded in this test, key = C=CC(=O)N1CCN(c2nc(=O)n(-c3c(C)ccnc3C(C)C)c3nc(-c4c(O)cccc4F)c(F)cc23)C(C)C1 (stereo not given) + CN(C)c1ccc(Nc2c3ccc(NC(=O)CCN4CCCC4)cc3nc3cc(NC(=O)CCN4CCCC4)ccc23)cc1
inactive

# outcome recorded in this test, key = CC(=O)O[C@H]1C(=O)[C@@]2(C)[C@H]([C@H](OC(=O)c3ccccc3)[C@]3(O)C[C@H](OC(=O)[C@H](O)[C@@H](NC(=O)c4ccccc4)c4ccccc4)C(C)=C1C3(C)C)[C@]1(OC(C)=O)CO[C@@H]1C[C@@H]2O + Cc1cnc(CNC(=O)c2c(=O)c3ccc(N4CCCN(C)CC4)nc3n3c2sc2ccccc23)cn1
active

# outcome recorded in this test, key = CC1COCCN1c1cc(-c2ccnn2C)c2ccnc(-c3ccn[nH]3)c2n1 (stereo not given) + CN(C)c1ccc(Nc2c3ccc(NC(=O)CCN4CCCC4)cc3nc3cc(NC(=O)CCN4CCCC4)ccc23)cc1
inactive

# outcome recorded in this test, key = CC(C)(O)C1CCC(Nc2ccc3ncc(-c4cccc(C(F)(F)F)c4)n3n2)CC1 (stereo not given) + Cc1[nH]c2ccc(F)cc2c1-c1nc2c3cccnc3c3ncccc3c2[nH]1
inactive

# outcome recorded in this test, key = COc1ccc([C@@H](O)c2cc(-c3ncnc4cc(N5CCOCC5)ccc34)c(F)cc2Cl)nn1 + Cc1cnc(CNC(=O)c2c(=O)c3ccc(N4CCCN(C)CC4)nc3n3c2sc2ccccc23)cn1
active

----------
system: 857933-349-R-J2-PDC complex spheroids, viability; assay: Anticancer human tumor 857933-349-R-J2-PDC cell line growth inhibition [GQUAD]; conditions: second compound 3.16 µM; first compound 0.0999 µM; active compounds read low;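 note: spheroids exposed to compounds for one week before readout; percent viability relative to vehicle DMSO wells taken as 100%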
We begin with a simple list: items and their reported viability, T/C.
Answer in %, number only, no unit symbol.

Cc1[nH]c2ccccc2c1CCNCc1ccc(/C=C/C(=O)NO)cc1 + Cc1[nH]c2ccc(F)cc2c1-c1nc2c3cccnc3c3ncccc3c2[nH]1 : 104
Cn1ncnc1[C@H]1c2n[nH]c(=O)c3cc(F)cc(c23)N[C@@H]1c1ccc(F)cc1 + Cc1cnc(CNC(=O)c2c(=O)c3ccc(N4CCCN(C)CC4)nc3n3c2sc2ccccc23)cn1 : 3.1

// moving on: another record for viability, T/C
Tell me its viability, T/C given CCc1c2c(nc3ccc(O)cc13)-c1cc3c(c(=O)n1C2)COC(=O)[C@]3(O)CC + CN(C)c1ccc(Nc2c3ccc(NC(=O)CCN4CCCC4)cc3nc3cc(NC(=O)CCN4CCCC4)ccc23)cc1 as the entry.
21.7

----------
tested on: 857933-349-R-J2-PDC complex spheroids, viability; experiment: Anticancer human tumor 857933-349-R-J2-PDC cell line growth inhibition [GQUAD]; settings: second compound 0.316 µM; first compound 0.316 µM; active compounds read low;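 note: spheroids exposed to compounds for one week before readout; percent viability relative to vehicle DMSO wells taken as 100%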
REPORTED PROPERTY: viability, T/C (%)
Answer in %, number only, no unit symbol.

Some solved cases for reference:
Cc1cccc(N(C)C(=O)C2C(O)CCN2c2nc(C)cc(C(F)(F)F)c2C#N)c1 (stereo not given) + Cc1cnc(CNC(=O)c2c(=O)c3ccc(N4CCCN(C)CC4)nc3n3c2sc2ccccc23)cn1 : 27.1
CC(C)n1c(=O)n(C)c2cnc3cc(F)c(-c4ccc(OCCCN5CCCCC5)nc4)cc3c21 + Cc1[nH]c2ccc(F)cc2c1-c1nc2c3cccnc3c3ncccc3c2[nH]1 : 102
COc1ccc([C@@H](O)c2cc(-c3ncnc4cc(N5CCOCC5)ccc34)c(F)cc2Cl)nn1 + Cc1cnc(CNC(=O)c2c(=O)c3ccc(N4CCCN(C)CC4)nc3n3c2sc2ccccc23)cn1 : 14.2

Tell me its viability, T/C given COc1ccc([C@@H](O)c2cc(-c3ncnc4cc(N5CCOCC5)ccc34)c(F)cc2Cl)nn1 + CN(C)c1ccc(Nc2c3ccc(NC(=O)CCN4CCCC4)cc3nc3cc(NC(=O)CCN4CCCC4)ccc23)cc1 as the entry.
99.1

Tell me its viability, T/C given C=CCn1c(=O)c2cnc(Nc3ccc(N4CCN(C)CC4)cc3)nc2n1-c1cccc(C(C)(C)O)n1 + Cc1cnc(CNC(=O)c2c(=O)c3ccc(N4CCCN(C)CC4)nc3n3c2sc2ccccc23)cn1 as the entry.
11.9

Tell me its viability, T/C given CCc1c2c(nc3ccc(O)cc13)-c1cc3c(c(=O)n1C2)COC(=O)[C@]3(O)CC + Cc1cnc(CNC(=O)c2c(=O)c3ccc(N4CCCN(C)CC4)nc3n3c2sc2ccccc23)cn1 as the entry.
0.55

Tell me its viability, T/C given C#Cc1c(F)ccc2cc(O)cc(-c3ncc4c(N5CC6CCC(C5)N6)nc(OCC56CCCN5CC(F)C6)nc4c3F)c12 (stereo not given) + Cc1[nH]c2ccc(F)cc2c1-c1nc2c3cccnc3c3ncccc3c2[nH]1 as the entry.
86.3

Tell me its viability, T/C given Cn1ncnc1[C@H]1c2n[nH]c(=O)c3cc(F)cc(c23)N[C@@H]1c1ccc(F)cc1 + Cc1[nH]c2ccc(F)cc2c1-c1nc2c3cccnc3c3ncccc3c2[nH]1 as the entry.
98.6

Tell me its viability, T/C given CC(=O)O[C@H]1C(=O)[C@@]2(C)[C@H]([C@H](OC(=O)c3ccccc3)[C@]3(O)C[C@H](OC(=O)[C@H](O)[C@@H](NC(=O)c4ccccc4)c4ccccc4)C(C)=C1C3(C)C)[C@]1(OC(C)=O)CO[C@@H]1C[C@@H]2O + CN(C)c1ccc(Nc2c3ccc(NC(=O)CCN4CCCC4)cc3nc3cc(NC(=O)CCN4CCCC4)ccc23)cc1 as the entry.
19.6

Tell me its viability, T/C given O=c1[nH]cc(F)c(=O)[nH]1 + CN(C)c1ccc(Nc2c3ccc(NC(=O)CCN4CCCC4)cc3nc3cc(NC(=O)CCN4CCCC4)ccc23)cc1 as the entry.
100
